Molecular target: complement C5a receptor 1 (C5aR1) (Homo sapiens)
Construct: β-galactosidase fragment (PathHunter enzyme complementation); host or cells: CHO-K1 (PathHunter CHO-K1 C5aR1 β-arrestin cell line)
Sequence (P21730 1-350): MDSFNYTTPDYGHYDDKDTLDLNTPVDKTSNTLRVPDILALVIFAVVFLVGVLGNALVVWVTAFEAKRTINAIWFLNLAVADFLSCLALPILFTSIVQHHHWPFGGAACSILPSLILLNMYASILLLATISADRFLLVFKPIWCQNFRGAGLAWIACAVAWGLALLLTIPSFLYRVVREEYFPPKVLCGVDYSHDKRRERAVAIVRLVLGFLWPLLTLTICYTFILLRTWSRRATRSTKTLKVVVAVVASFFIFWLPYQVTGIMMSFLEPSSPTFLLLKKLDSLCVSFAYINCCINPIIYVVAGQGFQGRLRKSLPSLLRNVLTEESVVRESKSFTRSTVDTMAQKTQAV
Assay: β-arrestin recruitment via C5aR1 activation in live CHO-K1 cells (PathHunter), antagonist mode
Type: cell-based
Settings: antagonist mode; recombinant hC5a (EC90) as competing natural agonist; live CHO-K1 cells; read-out: [Antagonist] B-arrestin2 recruitment: Average IC50
pIC50: −log10 of the molar value.

molecule	pIC50
Cc1ccc2cc([C@H]3CC[C@H](c4c(C)ccnc4F)CC3)c(=O)n(Cc3ncccc3C(F)(F)F)c2n1	> 6.30
Cc1cnc2cc([C@H]3CC[C@H](c4c(C)cccc4F)CC3)c(=O)n(Cc3nccnc3C)c2n1 [137B]	> 6.30
Cc1cnc2cc([C@H]3CC[C@@H](c4c(C)cccc4F)C3)c(=O)n(Cc3nccnc3C)c2n1 [172A]	5.30 to 6.30
Cc1cccc(F)c1N1CCC(c2cc3nccnc3n(Cc3nccnc3OC(F)F)c2=O)CC1	> 6.30
